- Test system: N. gonorrhoeae MS11
- experimental.protocol: Liquid broth MIC in Fastidious broth
- test.conditions: Neisseria gonorrhoeae, MS11, read-out: Minimum Inhibitory Concentration (MIC), N. gonorrhoeae MS11
attribute.measured: MIC

molecule: O=C(NCCCN1CCN(C(=O)NC(C(=O)N[C@H]2Cc3ccc(F)c(C(=O)O)c3OB2O)c2cc(F)c(O)c(O)c2Cl)C(=O)C1=O)Nc1ccncc1 (stereo partly drawn) [Example 228]
attribute.measured: MIC
recorded.measurement: > 64 µg/mL

molecule: CN(CCN1CCN(C(=O)N[C@@H](C(=O)N[C@H]2Cc3ccc(F)c(C(=O)O)c3OB2O)c2cc(F)c(O)c(O)c2Cl)C(=O)C1=O)Cc1cncc(O)c1 [Example 208]
attribute.measured: MIC
recorded.measurement: 4 to 8 µg/mL

molecule: O=C(O)c1cccc2c1OB(O)[C@@H](NC(=O)[C@H](NC(=O)c1cnc3n(c1=O)CCS3)c1ccc(P(=O)(O)O)cc1)C2 (single isomer, unassigned) [Example 197]
attribute.measured: MIC
recorded.measurement: 16 to 32 µg/mL

molecule: NS(=O)(=O)NC(C(=O)N[C@H]1Cc2cccc(C(=O)O)c2OB1O)c1ccc(P(=O)(O)O)cc1 (stereo partly drawn) [Example 58]
attribute.measured: MIC
recorded.measurement: 16 to 32 µg/mL

molecule: O=C(NCCN1CCN(C(=O)NC(C(=O)N[C@H]2Cc3ccc(F)c(C(=O)O)c3OB2O)c2cc(F)c(O)c(O)c2Cl)C(=O)C1=O)c1cccc(O)c1 (stereo partly drawn) [Example 215]
attribute.measured: MIC
recorded.measurement: 16 to 32 µg/mL

molecule: CN(CCN1CCN(C(=O)NC(C(=O)N[C@H]2Cc3ccc(F)c(C(=O)O)c3OB2O)c2cc(F)c(O)c(O)c2Cl)C(=O)C1=O)S(=O)(=O)c1ccc(C(N)=O)cc1 (stereo partly drawn) [Example 223]
attribute.measured: MIC
recorded.measurement: 16 to 32 µg/mL
